Tested on: oat, wild
Experiment: Test C postemergence
Assay type: in vivo, Avena fatua
Details: 125 g ai/ha, postemergence, 10 days; 0 to 100 scale, 0 no effect, 100 complete control
Text: […]
Examples of molecules with documented Plant response rating, Oat, Wild follow.

Molecule: CC1Oc2ccccc2N(C(=O)c2cccc(-n3cncn3)c2)C1C (stereo not drawn)
Plant response rating, Oat, Wild: 0
--
Molecule: COc1ccc(-n2cnc(C(C)C)n2)cc1C(=O)N1C[C@H](C)Oc2c(F)cccc21
Plant response rating, Oat, Wild: 80
--
Molecule: CCc1ncn(-c2ccc(C)c(C(=O)N3CC(C(F)(F)F)Oc4c(Cl)cccc43)c2)n1 (single isomer, unassigned) [Compound 218]
Plant response rating, Oat, Wild: 30

###

System: corn
Assay: Test C preemergence
Assay type: in vivo, Zea mays
Conditions: Preemergence, 125 g ai/ha; 0 to 100 scale, 0 no effect, 100 complete control
Measured parameter: Plant response rating, Corn

Compound: Cc1ccc(-n2cnc(C3(C#N)CCC3)n2)cc1C(=O)N1C[C@H](C)Oc2c(Cl)cccc21 [Compound 402]
Value measured: 0

Compound: Cc1cccc2c1OC(C(F)(F)F)CN2C(=O)c1ccnc(-n2cnc(C(C)(C)C)n2)c1 (stereo not shown) [Compound 319]
Value measured: 0

Compound: Cc1ccc(-n2cnc(C(C)C)n2)cc1C(=O)N1CC(C(F)(F)F)Oc2c(Cl)cccc21 (stereo not shown) [Compound 354]
Value measured: 20

Compound: CC(C)c1ncn(-c2cc(C(=O)N3CC(C(F)(F)F)Oc4c(Cl)cccc43)ccn2)n1 (single isomer, unassigned) [Compound 331]
Value measured: 0

###

Examples of compounds with documented Plant response rating, Barnyardgrass follow.
System: barnyardgrass
Assay: Test C preemergence
Format: in vivo, Echinochloa crusgalli
Conditions: Preemergence, 125 g ai/ha; 0 to 100 scale, 0 no effect, 100 complete control
Measured parameter: Plant response rating, Barnyardgrass

Compound: Cc1cccc2c1OC(C(F)(F)F)CN2C(=O)c1ccnc(-n2cnc(C(C)C)n2)c1 (stereo not shown) [Compound 327]
System: barnyardgrass
Value measured: 50

Compound: CCOC[C@H]1CN(C(=O)c2cc(-n3cnc(C(C)(C)C)n3)ccc2C)c2cccc(Cl)c2O1
System: barnyardgrass
Value measured: 50

Compound: Cc1ccc(-n2cnc(C(C)(C)C)n2)cc1C(=O)N1CC(C(F)(F)F)Oc2c(Cl)cccc21 (stereo not shown)
System: barnyardgrass
Value measured: 50

Compound: CCOC[C@H]1CN(C(=O)c2cc(-n3cnc(C(C)C)n3)cc3c2OCCO3)c2cccc(Cl)c2O1
System: barnyardgrass
Value measured: 50

Compound: Cc1ncn(-c2ccc(C)c(C(=O)N3CC(C(F)(F)F)Oc4c(Cl)cccc43)c2)n1 (stereo not shown)
System: barnyardgrass
Value measured: 70

Compound: COC(C)(C)c1ncn(-c2ccc(C)c(C(=O)N3C[C@H](C)Oc4c(Cl)cccc43)c2)n1
System: barnyardgrass
Value measured: 100

Compound: CC(C)c1ncn(-c2cccc(C(=O)N3CC(C(F)(F)F)Oc4c(Cl)cccc43)c2)n1 (stereo not shown)
System: barnyardgrass
Value measured: 60

Compound: CCOC[C@H]1CN(C(=O)c2cc(-n3cnc(C(C)(C)C)n3)cc3c2OCCO3)c2cccc(Cl)c2O1
System: barnyardgrass
Value measured: 50

Compound: CCc1ncn(-c2cccc(C(=O)N3CC(C(F)(F)F)Oc4c(C)cccc43)c2)n1 (stereo not shown)
System: barnyardgrass
Value measured: 80

Compound: CCOCC1CN(C(=O)c2cc(-n3cnc(C4CCC4)n3)ccc2OC)c2cccc(Cl)c2O1 (stereo not shown)
System: barnyardgrass
Value measured: 40

Compound: Cc1ncn(-c2cc(C(=O)N3CC(C(F)(F)F)Oc4c(Cl)cccc43)ccn2)n1 (stereo not shown)
System: barnyardgrass
Value measured: 40

Compound: CC(C)c1ncn(-c2ccc(S(C)(=O)=O)c(C(=O)N3C[C@H](C)Oc4c(Cl)cccc43)c2)n1
System: barnyardgrass
Value measured: 40

Compound: CC(C)c1ncn(-c2cc(C(=O)N3CC(C(F)(F)F)Oc4c(Cl)cccc43)ccn2)n1 (single isomer, unassigned)
System: barnyardgrass
Value measured: 0

###

Examples of compounds with documented Plant response rating, Wheat follow.
Test system: wheat
Assay: Test A postemergence
Type: in vivo, Triticum aestivum
Settings: 125 g ai/ha, postemergence, 10 days, visual injury, 0 to 100 scale (0 no effect, 100 complete control)

Compound: Cc1ccc(-n2cnc(Br)n2)cc1C(=O)N1C[C@H](C)Oc2c(Cl)cccc21
Plant response rating, Wheat: 10

Compound: CC1CN(C(=O)c2cc(-n3cncn3)ccc2F)c2cccc(Cl)c2O1 (stereo not drawn)
Plant response rating, Wheat: 10

Compound: CCc1cccc2c1OC(C)CN2C(=O)c1cccc(-n2cncn2)c1 (stereo not drawn)
Plant response rating, Wheat: 10

###

System: ragweed
Assay: Test C preemergence
Format: in vivo, Ambrosia artemisiifolia
Conditions: 500 g ai/ha, preemergence; 0 to 100 scale (0 no effect, 100 complete control)
Examples of compounds with documented Ragweed plant response rating follow.

Compound: CC(C)c1ncn(-c2cc(C(=O)N3CC(C(F)(F)F)Oc4c(Cl)cccc43)ccn2)n1 (racemic)
Ragweed plant response rating: 60

Compound: CCOC[C@H]1CN(C(=O)c2cc(-n3cnc(CC)n3)cc3c2OCCO3)c2cccc(Cl)c2O1
Ragweed plant response rating: 100

Compound: COC[C@H]1CN(C(=O)c2cc(-n3cnc(C(C)(C)O)n3)ccc2OC)c2cccc(Cl)c2O1
Ragweed plant response rating: 90

###

System: green foxtail
Test: Test C preemergence
Assay type: in vivo, Setaria viridis
Conditions: Test C, preemergence, 125 g ai/ha; 0 to 100 scale (0 no effect, 100 complete control)
Examples of compounds with documented Foxtail, Green plant response rating follow.

Compound: Cc1cccc2c1O[C@@H](C)CN2C(=O)c1cccc(-n2cnc([N+](=O)[O-])n2)c1 [Compound 306]
Foxtail, Green plant response rating: 0
//
Compound: Cc1ccc(-n2cnc(C(C)C)n2)cc1C(=O)N1CC(C(F)(F)F)Oc2c(Cl)cccc21 (single isomer, unassigned) [Compound 291]
Foxtail, Green plant response rating: 100
//
Compound: COC(=O)c1ncn(-c2ccc(C)c(C(=O)N3C[C@H](C)Oc4c(Cl)cccc43)c2)n1 [Compound 315]
Foxtail, Green plant response rating: 30
//
Compound: CC(C)c1ncn(-c2cccc(C(=O)N3CC(C(F)(F)F)Oc4c(Cl)cccc43)c2)n1 (single isomer, unassigned) [Compound 289]
Foxtail, Green plant response rating: 100
//
Compound: COc1ccc(-n2cncn2)cc1C(=O)N1C[C@H](C)Oc2ccccc21 [Compound 228]
Foxtail, Green plant response rating: 100
//
Compound: Cc1cccc2c1O[C@@H](C)CN2C(=O)c1cc(-n2cnc(C(C)C)n2)cc2ccoc12 [Compound 227]
Foxtail, Green plant response rating: 100
//
Compound: COc1cc(C(=O)N2C[C@H](C)Oc3c(Cl)cccc32)cc(-n2cnc(C(C)(C)C)n2)c1 [Compound 213]
Foxtail, Green plant response rating: 100
//
Compound: CC(C)c1ncn(-c2cc(OC(F)F)c(OC(F)F)c(C(=O)N3C[C@H](C)Oc4c(Cl)cccc43)c2)n1 [Compound 150]
Foxtail, Green plant response rating: 0
//
Compound: Cc1ccc(-n2cnc(C3(C(F)(F)F)CC3)n2)cc1C(=O)N1C[C@H](C)Oc2c(Cl)cccc21 [Compound 175]
Foxtail, Green plant response rating: 90
//
Compound: CCOCc1ncn(-c2ccc(C)c(C(=O)N3C[C@H](C)Oc4c(Cl)cccc43)c2)n1 [Compound 294]
Foxtail, Green plant response rating: 90
//
Compound: Cc1c(F)cc(-n2cnc(C(C)C)n2)cc1C(=O)N1C[C@H](C)Oc2c(Cl)cccc21 [Compound 151]
Foxtail, Green plant response rating: 100
//
Compound: CCc1ncn(-c2ccc(C)c(C(=O)N3CC(C(F)(F)F)Oc4c(Cl)cccc43)c2)n1 (single isomer, unassigned) [Compound 218]
Foxtail, Green plant response rating: 100
//
Compound: CC(C)c1ncn(-c2ccc([S+]([O-])C(F)(F)F)c(C(=O)N3C[C@H](C)Oc4c(Cl)cccc43)c2)n1 (stereo partly shown) [Compound 191]
Foxtail, Green plant response rating: 0
//
Compound: COC[C@H]1CN(C(=O)c2cc(-n3cncn3)ccc2OC)c2cccc(Cl)c2O1 [Compound 234]
Foxtail, Green plant response rating: 100
//
Compound: C[C@H]1CN(C(=O)c2cc(-n3cnc(C4CC4)n3)cc3c2OCCO3)c2cccc(Cl)c2O1 [Compound 156]
Foxtail, Green plant response rating: 100
//
Compound: Cc1cccc2c1OC(C(F)(F)F)CN2C(=O)c1cccc(-n2cnc(C(C)C)n2)c1 (single isomer, unassigned) [Compound 302]
Foxtail, Green plant response rating: 20
//
Compound: Cc1cccc2c1O[C@@H](C)CN2C(=O)c1cccc(-n2cnc(C(C)(C)O)n2)c1 [Compound 278]
Foxtail, Green plant response rating: 100
//
Compound: CCc1ncn(-c2ccc(C)c(C(=O)N3C[C@H](COC)Oc4c(Cl)cccc43)c2)n1 [Compound 265]
Foxtail, Green plant response rating: 100
//
Compound: Cc1ccc(-n2cnc(CC3CC3)n2)cc1C(=O)N1C[C@H](C)Oc2c(Cl)cccc21 [Compound 273]
Foxtail, Green plant response rating: 100
//
Compound: Cc1ccc(-n2cnc(C(C)C)n2)cc1C(=O)N1C[C@H](C)Oc2c(F)cccc21 [Compound 242]
Foxtail, Green plant response rating: 100
//
Compound: CC(C)n1cnc(-c2cccc(C(=O)N3C[C@H](C)Oc4c(Cl)cccc43)c2)n1 [Compound 172]
Foxtail, Green plant response rating: 0
//
Compound: Cc1ccc(-n2cnc(C(C)(C)C)n2)cc1C(=O)N1CC(C(F)(F)F)Oc2c(Cl)cccc21 (single isomer, unassigned) [Compound 192]
Foxtail, Green plant response rating: 100
//
Compound: CCc1ncn(-c2ccc(OC)c(C(=O)N3C[C@H](C)Oc4c(C)cccc43)c2)n1 [Compound 211]
Foxtail, Green plant response rating: 0
//
Compound: COc1cc(C(=O)N2C[C@H](C)Oc3c(Cl)cccc32)cc(-n2cnc(C3CC3)n2)c1 [Compound 216]
Foxtail, Green plant response rating: 100
//
Compound: CCOc1ncn(-c2cccc(C(=O)N3C[C@H](C)Oc4c(Cl)cccc43)c2)n1 [Compound 311]
Foxtail, Green plant response rating: 90
